All values here come from paper PMC6162288.

ISI (inter-spike interval) listing for selected molecules.
Test system: lined-up hESC-CMs
Assay: MEA field potential recording of lined-up hESC-CMs (cFPD, CT, their STVs, ISI, beat rate, arrest)
Type: cell-based, human
Conditions: Conc. 10^2 nM; change vs Ctrl.
Protocol: Human embryonic stem cell-derived cardiomyocytes clusters (hES-CMCs) were shipped from Cellectis (hES-CMCTM002, hES cell line SA002, Gothenburg, Sweden)[42],[43], and maintained in Dulbecco’s modified Eagle’s medium (DMEM) supplemented 20% heat-inactivated fetal bovaine serum, 1 mM GlutaMax, 100 U/mL penicillin, 0.1 mg/mL streptomycin, 1% nonessential amino acids and 0.1 mM β-mercaptoethanol (Invitrogen, Carsbad, CA, USA). […]
assay_metric: ISI (inter-spike interval) (%)

* COc1ccc(CCN2CCC(Nc3nc4ccccc4n3Cc3ccc(F)cc3)CC2)cc1 [Astemizole, astemizole] | −5.3
* Cc1cccc(CCN2CCC(C(=O)c3ccc(NS(C)(=O)=O)cc3)CC2)n1 [E-4031] | −4.7
* CCN(CC)CC(=O)Nc1c(C)cccc1C [Lidocaine, lidocaine] | −4.2
* O=C(NCC1CCCCN1)c1cc(OCC(F)(F)F)ccc1OCC(F)(F)F (centres unmarked) [Flecainide, flecainide] | −3.7
* CC(C)(C)c1ccc(C(O)CCCN2CCC(C(O)(c3ccccc3)c3ccccc3)CC2)cc1 (centres unmarked) [Terfenadine, terfenadine] | −2.0

---

System: lined-up hESC-CMs
Assay: MEA field potential recording of lined-up hESC-CMs (cFPD, CT, their STVs, ISI, beat rate, arrest)
Format: cell-based, human
Conditions: Conc. 10 nM; change vs Ctrl.
assay_metric: cFPD (%)

* COc1ccc(CCN2CCC(Nc3nc4ccccc4n3Cc3ccc(F)cc3)CC2)cc1 [Astemizole, astemizole] | 0.69
* O=C(NCC1CCCCN1)c1cc(OCC(F)(F)F)ccc1OCC(F)(F)F (centres unmarked) [Flecainide, flecainide] | 0.13
* CCN(CC)CC(=O)Nc1c(C)cccc1C [Lidocaine, lidocaine] | 9.5
* Cc1cccc(CCN2CCC(C(=O)c3ccc(NS(C)(=O)=O)cc3)CC2)n1 [E-4031] | 7.1
* CC(C)(C)c1ccc(C(O)CCCN2CCC(C(O)(c3ccccc3)c3ccccc3)CC2)cc1 (centres unmarked) [Terfenadine, terfenadine] | 2.3

---

Listing: BR (beat rate) of selected compounds
Test system: lined-up hESC-CMs
Test: MEA field potential recording of lined-up hESC-CMs (cFPD, CT, their STVs, ISI, beat rate, arrest)
Type: cell-based, human
Conditions: Conc. 10 nM; change vs Ctrl.
assay_metric: BR (beat rate)

• O=C(NCC1CCCCN1)c1cc(OCC(F)(F)F)ccc1OCC(F)(F)F (centres unmarked) [Flecainide, flecainide] = 2.6%
• Cc1cccc(CCN2CCC(C(=O)c3ccc(NS(C)(=O)=O)cc3)CC2)n1 [E-4031] = 4.5%
• CC(C)(C)c1ccc(C(O)CCCN2CCC(C(O)(c3ccccc3)c3ccccc3)CC2)cc1 (centres unmarked) [Terfenadine, terfenadine] = 4.6%
• CCN(CC)CC(=O)Nc1c(C)cccc1C [Lidocaine, lidocaine] = 3.6%
• COc1ccc(CCN2CCC(Nc3nc4ccccc4n3Cc3ccc(F)cc3)CC2)cc1 [Astemizole, astemizole] = 6.5%

---

System: lined-up hESC-CMs
Assay: MEA field potential recording of lined-up hESC-CMs (cFPD, CT, their STVs, ISI, beat rate, arrest)
Assay type: cell-based, human
Settings: Conc. 10^2 nM (0.1 μM); change vs Ctrl.
assay_metric: cFPD

* Cc1cccc(CCN2CCC(C(=O)c3ccc(NS(C)(=O)=O)cc3)CC2)n1 | 30%
* CC(C)(C)c1ccc(C(O)CCCN2CCC(C(O)(c3ccccc3)c3ccccc3)CC2)cc1 (centres unmarked) | 2.8%
* CCN(CC)CC(=O)Nc1c(C)cccc1C | 10%
* O=C(NCC1CCCCN1)c1cc(OCC(F)(F)F)ccc1OCC(F)(F)F (centres unmarked) [Flecainide, flecainide] | 3.4%
* COc1ccc(CCN2CCC(Nc3nc4ccccc4n3Cc3ccc(F)cc3)CC2)cc1 | 4.4%
